// data source = the supplement of paper PMC6555819

system: PPARg:RXRa 30nM:10nM, anti-RXR (NR concentration 30 nM, RXRa partner concentration 10 nM); experiment: PBM binding z-score (relative to random genomic background probes); higher = stronger binding; sequences stand for … in GC…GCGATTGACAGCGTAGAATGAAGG
value_type: PBM binding z-score
Answer with the value's number alone.

Known PBM binding z-score results, listed for orientation:
[[record]]
query_sequence = "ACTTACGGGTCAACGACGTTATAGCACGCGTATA"
obs_value = 1.83

[[record]]
query_sequence = "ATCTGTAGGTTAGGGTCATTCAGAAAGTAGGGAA"
obs_value = 2.09

[[record]]
query_sequence = "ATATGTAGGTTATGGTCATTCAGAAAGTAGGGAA"
obs_value = 2.18

[[record]]
query_sequence = "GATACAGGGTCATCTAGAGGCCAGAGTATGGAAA"
obs_value = 2.33

[[record]]
query_sequence = "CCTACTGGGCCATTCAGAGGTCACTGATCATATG"
obs_value = 0.819


Item under review: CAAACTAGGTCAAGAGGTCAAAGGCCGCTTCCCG . Reported PBM binding z-score?
7.55

Now the same for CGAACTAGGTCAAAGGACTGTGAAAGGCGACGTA
7.28

* * *

Here the recorded PBM binding z-score is given for each entry.
tested on: THRa:RXRa (NR concentration 90 nM, RXRa partner concentration 90 nM); test: PBM binding z-score (relative to random genomic background probes); higher = stronger binding; sequences stand for … in GC…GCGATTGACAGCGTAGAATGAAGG

Known PBM binding z-score results, listed for orientation:
[[record]]
query_sequence = "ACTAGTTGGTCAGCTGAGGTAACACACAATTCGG"
obs_value = 3.97

[[record]]
query_sequence = "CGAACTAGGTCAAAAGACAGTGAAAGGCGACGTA"
obs_value = 1.64

[[record]]
query_sequence = "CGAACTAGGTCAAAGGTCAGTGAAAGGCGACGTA"
obs_value = 4.55

[[record]]
query_sequence = "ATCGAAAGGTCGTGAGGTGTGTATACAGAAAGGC"
obs_value = 2.44

[[record]]
query_sequence = "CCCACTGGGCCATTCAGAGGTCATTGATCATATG"
obs_value = 3.43


State its PBM binding z-score on THRa:RXRa (NR concentration 90 nM, RXRa partner concentration 90 nM): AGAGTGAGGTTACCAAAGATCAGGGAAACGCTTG
2.84

Now the same for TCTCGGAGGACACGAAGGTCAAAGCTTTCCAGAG
3.4

* * *

test system: LXRb:RXRa (NR concentration 270 nM, RXRa partner concentration 90 nM); assay: PBM binding z-score (relative to random genomic background probes); higher = stronger binding; sequences stand for … in GC…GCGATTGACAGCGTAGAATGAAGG
Where PBM binding z-score equals or exceeds 1, the correct label is yes; where it does not, the label is no.

Record excerpt, results attached:
[[record]]
query_sequence = "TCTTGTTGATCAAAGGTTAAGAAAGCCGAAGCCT"
group = "yes"

[[record]]
query_sequence = "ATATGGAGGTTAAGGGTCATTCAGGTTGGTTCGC"
group = "yes"

[[record]]
query_sequence = "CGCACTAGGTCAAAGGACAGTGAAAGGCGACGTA"
group = "yes"

[[record]]
query_sequence = "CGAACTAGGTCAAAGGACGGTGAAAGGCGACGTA"
group = "yes"

[[record]]
query_sequence = "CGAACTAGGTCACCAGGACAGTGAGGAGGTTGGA"
group = "yes"


Now let's try a different one.
Determine whether this sequence has PBM binding z-score no lower than 1: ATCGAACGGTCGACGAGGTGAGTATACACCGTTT
no
